Kindly supply the reported activity, negative = inhibition values for the records listed here.
Assay: Stat Signaling Pathway (AID 446);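 further: ME-180 cervical cancer cells given 40 pM IL-6 alongside compound; SIE-controlled beta-lactamase reporter measured as 460/530 nm FRET emission ratio; on the % scale 0 is the no-effect control and ±100 the full control effect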
Details: ME-180 (cervical carcinoma) SIE beta-lactamase reporter, IL-6 stimulated, 5 h; at 7.69 µM (top of the series) unless noted
Inconclusive results are not listed. Active and inactive are the calls of the source. The call rests on the fitted dose curve; in most records, active means well fitted curve in either direction with a large enough effect (not every such curve was filed as active); inconclusive means small, poorly fitted or top-dose-only effect, or another doubt; inactive means flat fitted curve, though single readings scatter.

For COc1ncc2nc(-c3cn(C)c4ccccc34)c(=O)n(-c3ccccc3)c2n1 the molecule record lists activity, negative = inhibition as 6.13% (inactive)

Just so you know, measured activity, negative = inhibition for Cc1ccccc1-c1nc(NCCN2CCOCC2)c2ccccc2n1 came out at -0.303% (inactive)

COc1ccccc1CN1CCCC2(CCN(C(=O)c3ccco3)CC2)C1 has a reported activity, negative = inhibition of -1.13% (inactive)

response.value for CN(C)c1ncc2nc(-c3ccc(F)cc3)c(=O)n(-c3ccccc3)c2n1 (field: activity, negative = inhibition) = 28.3% (inactive)

Form: molecule = Cc1noc(C)c1-c1ccc2ncnc(NCCN3CCOCC3)c2c1 ; activity, negative = inhibition = -22.6% (inactive)

Value of activity, negative = inhibition reported for the molecule CC(=O)NCCNc1nc(-c2ccc3c(c2)OCO3)nc2ccccc12 is 4.37% (inactive)

Recorded activity, negative = inhibition (molecule Cc1cnc(CNc2ncncc2-c2ccc3c(c2)OCO3)cn1 ): 4.5% (inactive)

Noted for Cc1ccccc1-c1cncnc1NCc1cccnc1 : its activity, negative = inhibition reads 4.91% (inactive)

# molecule CCNc1ncc2nc(-c3ccc(F)cc3)c(=O)n(-c3ccc(OC)cc3)c2n1 ; its activity, negative = inhibition = 20.4% (inactive)

For reference, reported activity, negative = inhibition for CS(=O)(=O)Nc1cccc(-c2nc(NCc3ccccc3)c3ccccc3n2)c1 stands at -10.7% (inactive)

activity, negative = inhibition measured on COc1ccc(NC(=O)N2CC[C@@]3(CCCN(C(=O)c4cc(C(F)(F)F)cc(C(F)(F)F)c4)C3)C2)cc1 = -6.2% (inactive)

Reported activity, negative = inhibition ( Cc1cnc(CNc2ncnc3ccc(-c4cccc(NS(C)(=O)=O)c4)cc23)cn1 ) = -9.12% (inactive)

Kindly note the recorded activity, negative = inhibition for COc1ccc2[nH]cc(CCNc3ccnc(-c4ccc(C(=O)N(C)C)cc4)n3)c2c1 , which is -20.4% (inactive)

get_value(item= COc1ccccc1CN1CCC2(CC1)CCN(C(=O)c1cc(C(F)(F)F)cc(C(F)(F)F)c1)CC2 , readout=activity, negative = inhibition) returns -3.31% (inactive)

CCNc1ncc2nc(C)c(=O)n(C[C@H]3CCCO3)c2n1 has a reported activity, negative = inhibition of -8.96% (inactive)

For reference, reported activity, negative = inhibition for CN1CCN(c2ncc3nc(-c4ccccc4)c(=O)n(C)c3n2)CC1 stands at 20% (inactive)

For Cc1ccccc1-c1cc(-n2ccnc2)ncn1 the molecule record lists activity, negative = inhibition as 15.7% (inactive)

Record CN(Cc1ccco1)c1ccnc(-c2cccc(C#N)c2)n1 , field activity, negative = inhibition: 2.59% (inactive)

Entry COc1ccc(CNc2ncnc3ccc(-c4ccc5c(c4)OCO5)cc23)c(OC)c1 — recorded activity, negative = inhibition = -5.8% (inactive)

Recorded activity, negative = inhibition (molecule Cc1noc(C)c1-c1nc(NCc2ccccc2)c2ccccc2n1 ): -4.57% (inactive)

Lab note: measured activity, negative = inhibition of COc1ccc(C(=O)N2CCC3(CCCN(c4cccc(-c5ccccc5)c4)C3)CC2)cc1 was 1.07% (inactive)

According to the records, this molecule COCCn1c(=O)c(-c2cccs2)nc2cnc(Nc3ccccc3)nc21 displays activity, negative = inhibition of 14.8% (inactive)

get_value(item= N#Cc1cccc(-c2ccc3ncnc(NC4CCNCC4)c3c2)c1 , readout=activity, negative = inhibition) returns -3.89% (inactive)

# molecule N#Cc1ccc(CN2CCCC3(CCN(S(=O)(=O)c4ccccc4)CC3)C2)cc1 ; its activity, negative = inhibition = -1.86% (inactive)

// O=C(c1cnccn1)N1CCC2(CCN(Cc3ccncc3)CC2)CC1 : activity, negative = inhibition value = -8.42% (inactive)

Please fill in: activity, negative = inhibition reported for O=c1c(-c2ccc(Cl)cc2)nc2cncnc2n1Cc1ccccc1 = -3.39% (inactive)

So, Cc1cccc(CNc2ccnc(-c3ccc(C(=O)N(C)C)cc3)n2)c1 ? Its activity, negative = inhibition was -2.13% (inactive)

Form: molecule = COc1ccc(C(=O)N2CCC[C@@]3(CCN(Cc4ccccc4OC)C3)C2)cc1 ; activity, negative = inhibition = 5.47% (inactive)

For reference, reported activity, negative = inhibition for O=C(c1csnn1)N1CCC2(CCCN(c3ccncc3)C2)CC1 stands at -10.5% (inactive)

// activity, negative = inhibition value for O=C(c1cccc(F)c1)N1CCC2(CCCN(Cc3ccncc3)C2)CC1 : -4.85% (inactive)

So for COc1ncc2nc(-c3cc(F)cc(F)c3)c(=O)n(Cc3cccs3)c2n1 , the logged activity, negative = inhibition turned out to be 4.55% (inactive)

Lookup result for COc1cccc(-c2nc(N3CCNCC3)c3ccccc3n2)c1 ; measured activity, negative = inhibition: -3.15% (inactive)

For this molecule ( COc1ccccc1CNc1ncnc2ccc(-c3ccccc3C#N)cc12 ), measured activity, negative = inhibition is -23% (inactive)

For reference, reported activity, negative = inhibition for COc1ncc2nc(-c3ccc(F)cc3)c(=O)n(CCc3ccccc3)c2n1 stands at -5.82% (inactive)

// field: activity, negative = inhibition; key: CC(=O)N1CCC[C@@]2(CCN(Cc3nccs3)C2)C1 ; value = 4.24% (inactive)

molecule FC(F)(F)c1ccccc1-c1ccc2ncnc(NC3CC3)c2c1 , activity, negative = inhibition observed: -18.8% (inactive)

// activity, negative = inhibition value for CNc1ncnc2ccc(-c3cccc(NS(C)(=O)=O)c3)cc12 : -3.45% (inactive)

According to the records, this molecule Cn1cccc1C(=O)N1CCC2(CCCN(c3ccncc3)C2)CC1 displays activity, negative = inhibition of 0.921% (inactive)

Per the records, this molecule ( O=c1c(-c2cccs2)nc2cnc(N3CCOCC3)nc2n1CCc1ccccc1 ) has activity, negative = inhibition equal to 18.4% (inactive)

The molecule listed as O=C(c1cc(C(F)(F)F)cc(C(F)(F)F)c1)N1CCC[C@@]2(CCN(c3ccncc3)C2)C1 shows activity, negative = inhibition equal to 1.59% (inactive)

Please fill in: activity, negative = inhibition reported for COc1ccc(CNc2ncncc2-c2ccoc2)c(OC)c1 = -9.38% (inactive)

Lab book: activity, negative = inhibition of O=S(=O)(c1ccccc1)N1CCC2(CCN(Cc3nccs3)CC2)CC1 noted as -4.54% (inactive)

Just so you know, measured activity, negative = inhibition for COCC(=O)N1CCC2(CC1)CN(c1ccncc1)C2 came out at -1.5% (inactive)

# activity, negative = inhibition (molecule: CN1CCN(c2ncc3nc(CCc4ccccc4)c(=O)n(C)c3n2)CC1 ) is -2.48% (inactive)
